# STUDY_SYSTEM: DhelOBP10 (Dastarcus helophoroides, UniProt A0A1I9HZP4)
# Sequence (A0A1I9HZP4 20-220): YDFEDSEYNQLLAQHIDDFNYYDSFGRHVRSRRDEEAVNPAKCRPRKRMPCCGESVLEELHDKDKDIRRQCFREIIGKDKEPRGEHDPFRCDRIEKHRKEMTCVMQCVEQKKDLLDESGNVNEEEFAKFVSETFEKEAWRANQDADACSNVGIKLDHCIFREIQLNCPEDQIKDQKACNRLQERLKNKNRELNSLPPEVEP
# MEASUREMENT_DESCRIPTION: Competitive fluorescence-binding assay with 1-NPN probe, recombinant DhelOBP10
# CONDITIONS: DhelOBP10 Ki (dissociation constant), pH5.0; 1-NPN competition; mean ± SEM
Exam item: assign YES to entries whose Ki is below 8 µM and NO to entries at or above 8 µM. Note that a value of exactly 8 µM receives NO.

Does this compound meet the criterion Ki < 8 µM? C=CC(=C)CCC=C(C)C [myrcene]
YES

Does this compound meet the criterion Ki < 8 µM? CC1=CCC2C(C1)C2(C)C (centres unmarked) [3-carene]
NO

Does this compound meet the criterion Ki < 8 µM? C=C1CC[C@H]2O[C@]2(C)CC[C@@H]2[C@@H]1CC2(C)C [(−)-caryophyllene oxide]
YES

Does this compound meet the criterion Ki < 8 µM? C=C1C2CCC(C2)C1(C)C (centres unmarked) [camphene]
NO

Does this compound meet the criterion Ki < 8 µM? CC12CCC(CC1=O)C2(C)C (centres unmarked) [camphor]
NO
